# Tested on: WPMY1-ACTB-RAB5A
# Assay procedure: phenotypically active (imaging signature differs from DMSO and reproducible) at any of 0.3-9 uM (binary (1 = active, 0 = inactive)); higher = active
# Experimental parameters: treatment time: 24 h
Just give me one of these, please: yes = active, no = inactive

Q: Returns: the outcome recorded for COc1cc(OC)c2c(=O)[nH]c(-c3cc(C)c(OCCO)c(C)c3)nc2c1 [apabetalone] in this assay.
Ans: no

Q: Returns: the outcome recorded for O=C(CCCc1ccc(-c2ccccc2F)cc1)Nc1ccc(O)cc1 in this assay.
Ans: yes

Q: Returns: the outcome recorded for CN1c2ccccc2C(=O)N2CCc3c([nH]c4ccccc34)[C@H]21 [Evodiamine] in this assay.
Ans: yes

Q: Returns: the outcome recorded for Cc1ccc(NC(=O)c2cccc(N(C)C)c2)cc1NC(=O)c1ccc(O)cc1 in this assay.
Ans: yes

---

# Test system: HepG2-ACTB-RAB5A
# Assay procedure: phenotypically active (imaging signature differs from DMSO and reproducible) at any of 0.3-9 uM (binary (1 = active, 0 = inactive)); higher = active
# Experimental parameters: treatment time: 24 h
Counter-ions that a name gives are not always drawn.
Task for the reader: assign each of the following compounds its reported phenotypically active.
Respond with the number and no other words.

Q: Query: phenotypically active; subject: C[n+]1cccc(C(=O)O)c1 [Trigonelline hydrochloride]
Ans: 0

Q: Query: phenotypically active; subject: COP(=O)(OC)OC(c1ccc(Cl)cc1)P(=O)(OC)OC (configuration not stated)
Ans: 0

Q: Query: phenotypically active; subject: NC(=O)c1ccc(I)c([N+](=O)[O-])c1
Ans: 0

Q: Query: phenotypically active; subject: COc1cc2c(NC3CCN(C(C)C)CC3)nc(N3CCC(F)(F)CC3)nc2cc1OCCCN1CCCC1
Ans: 1

Q: Query: phenotypically active; subject: Cc1nc(Nc2ncc(C(=O)Nc3c(C)cccc3Cl)s2)cc(N2CCN(CCO)CC2)n1
Ans: 1

Q: Query: phenotypically active; subject: CCCCc1c(O)n(-c2ccccc2)n(-c2ccccc2)c1=O
Ans: 0

Q: Query: phenotypically active; subject: CC[N+](C)(C)c1cccc(O)c1
Ans: 0

---

Task for the reader: assign each of the following compounds its reported phenotypically active.
# Test system: WPMY1-TUBA1B-RELA
# Assay procedure: phenotypically active (imaging signature differs from DMSO and reproducible) at any of 0.3-9 uM (binary (1 = active, 0 = inactive)); higher = active
# Experimental parameters: treatment time: 24 h
Respond with the number and no other words.

Q: Query: phenotypically active; subject: C[C@@H]1C[C@H]2[C@@H]3C[C@H](F)C4=CC(=O)C=C[C@]4(C)[C@@]3(F)[C@@H](O)C[C@]2(C)[C@@]1(O)C(=O)COC(=O)C(C)(C)C [flumethasone pivalate]
Ans: 0

Q: Query: phenotypically active; subject: CC[C@]12CCCN3CCc4c(n(c5ccccc45)C(=O)C1)[C@@H]32 [Eburnamonine (-)]
Ans: 1

Q: Query: phenotypically active; subject: Cc1cc(O)cc2c1C(=O)Oc1cc3c(c(O)c1O2)C(=O)OC3 [Variolaric acid]
Ans: 0

Q: Query: phenotypically active; subject: CC(COc1ccccc1)N(CCCl)Cc1ccccc1 (stereo unspecified) [phenoxybenzamine]
Ans: 0

Q: Query: phenotypically active; subject: Cc1c(C)c2c(c(C)c1O)CC[C@@](C)(CCC[C@H](C)CCC[C@H](C)CCCC(C)C)O2 [Tocopherol (R,S)]
Ans: 0

Q: Query: phenotypically active; subject: COc1ccc([C@@H]2CC(=O)c3c(O)cc(O[C@@H]4O[C@H](CO[C@@H]5O[C@@H](C)[C@H](O)[C@@H](O)[C@H]5O)[C@@H](O)[C@H](O)[C@H]4O)cc3O2)cc1O [Hesperidin]
Ans: 0

Q: Query: phenotypically active; subject: O=C(Nc1ccc(CN2CCOCC2)cc1)c1ccc(-c2cccc(Cl)c2)o1
Ans: 0

Q: Query: phenotypically active; subject: Nc1ccn([C@@H]2O[C@H](CO)[C@@H](O)[C@@H]2O)c(=O)n1 [cytarabine]
Ans: 1

Q: Query: phenotypically active; subject: O=C1c2ccccc2C(Cc2ccncc2)(Cc2ccncc2)c2ccccc21
Ans: 0

Q: Query: phenotypically active; subject: COc1cc(OC2CCN(C)CC2)ccc1Nc1ncc2c(n1)n(C1CCCC1)c(=O)n2C
Ans: 1

Q: Query: phenotypically active; subject: COc1c(C)cnc(Cn2cc(C#CCC(C)(C)O)c3c(Cl)nc(N)nc32)c1C
Ans: 1

Q: Query: phenotypically active; subject: O=C(/C=C/c1ccc(O)c(O)c1)O[C@@H]1C[C@](O)(C(=O)O)C[C@@H](O)[C@H]1O [Chlorogenic acid]
Ans: 0

Q: Query: phenotypically active; subject: CC(=O)OC(C)C[N+](C)(C)C (stereo unspecified) [methacholine]
Ans: 0

Q: Query: phenotypically active; subject: C[C@@H]1O[C@@H](OC[C@H]2O[C@@H](Oc3c(-c4ccc(O)c(O)c4)oc4cc(O)cc(O)c4c3=O)[C@H](O)[C@@H](O)[C@@H]2O)[C@H](O)[C@H](O)[C@H]1O [Quercétine-3-rutinoside]
Ans: 0

Q: Query: phenotypically active; subject: Cc1ncc(-c2ccnc(Nc3ccc(S(C)(=O)=O)cc3)n2)n1C(C)C
Ans: 1

Q: Query: phenotypically active; subject: C[C@@H]1CN(CC(=O)Nc2ccc3c(c2)Cc2cccc(-c4cc(=O)cc(N5CCOCC5)o4)c2S3)C[C@H](C)O1
Ans: 1

Q: Query: phenotypically active; subject: CCOc1ccccc1OCCN[C@H](C)Cc1ccc(OC)c(S(N)(=O)=O)c1 [tamsulosin]
Ans: 0

Q: Query: phenotypically active; subject: CC(=O)Nc1nnc(S(N)(=O)=O)s1 [acetazolamide]
Ans: 0

Q: Query: phenotypically active; subject: O=C(/C=C/c1ccc2ccccc2n1)c1ccncc1
Ans: 1

Q: Query: phenotypically active; subject: CC(=O)c1c(C)c2cnc(Nc3ccc(N4CCNCC4)cn3)nc2n(C2CCCC2)c1=O
Ans: 1

Q: Query: phenotypically active; subject: C1CCN2C[C@@H]3C[C@@H](CN4CCCC[C@@H]34)[C@H]2C1 [Sparteine (-)]
Ans: 0
